Provenance of the data: PubChem BioAssay (NCI)

# Tested on: SK-OV-3 ovarian
# experiment: NCI tumour cell line growth inhibition, 48 h
metric: TGI (µM)
Numbers only, in µM.

{"columns": ["compound", "TGI, µM"],
 "data": [
  ["NC1C/C(=N\\O)c2c(I)sc(I)c21 (configuration not stated)", 30.2]
]}

Provide TGI for all items below, preserving their order.
1. CC(=O)C1=C(N=[N+]=[N-])c2cccc3cccc(c23)C1=O
2. O=C(Oc1ccccc1)c1cc2cc(CCl)ccc2oc1=O
3. CCC[CH2][Sn]([CH2]CCC)([O]C(=O)c1cccc(F)c1)[O]C(=O)c1cccc(F)c1

[82.3, 83.2, 3.45]
